- measured on: human IgG1 antibody (#I5154; Sigma-Aldrich) (human)
- test description: SPR, single cycle kinetics, IgG1 chip
value kind: koff (s⁻¹)

binder	u	measured result
R2-18 rabbit-derived single-chain antibody-His (scFv) scFv: QSLEESGGRLVTPGTPLTLTCTVSGIDLSSNAMTWVRQAPGEGLEWIGTISTGGSTYFASWAKGRFTISKTSTTVDLKITSPTTEDTATYFCATRYDSYGYAYNYWFGTLWGPGTLVTVTSGGGGSGGGGSGGGGSELVMTQTAASVSEPVGGTVTIKCQASQNINNELAWYQQKPGQRPKLLIYDASKLASGVPSRFSGSGSGTEFTLTISGMQCDDAATYYCQSTYYDGNYVYAFGGGTEVDVKGSHHHHHH	s⁻¹	0.00012
